system: SR leukemia; assay: NCI tumour cell line growth inhibition, 48 h
The reader will find reported TGI values listed item by item below.

INSERT INTO assay_data (molecule, result) VALUES
  ('c1ccc(CNCCN2CCNCC2)nc1', '> 100 µM'),
  ('O=C(O)C1(c2ccccc2)CCCNCC1 (stereo unspecified)', '> 100 µM'),
  ('N#CCN1c2ccccc2CCC1Cl (stereo unspecified)', '> 10 µM'),
  ('CS(=O)(=O)Nc1cc(-c2ccc3ncnc(Nc4ccc5c(cnn5Cc5cccc(F)c5)c4)c3c2)cnc1Cl', '> 100 µM'),
  ('O=C1/C(=C/c2ccc(Cl)cc2)COc2ccc(O)cc21', '5.3 µM');

Enquiry: Complete the entry with TGI for COC(=O)CCCC(=O)NC1=C(Nc2ccc(OC)cc2)C(=O)c2ccccc2C1=O
Return: > 100 µM

====

tested on: EKVX NSCLC; experiment: NCI tumour cell line growth inhibition, 48 h; in the data active = GI50 below about 0.43 µM; inactive = the rest
Hi there, use one of these labels in your reply, thanks! active, inactive

Some entries whose results are on file:
INSERT INTO results (line_notation, class_name) VALUES
  ('CCN1CCC(Oc2c(C#N)ncc3[nH]c4ncccc4c23)CC1', 'inactive'),
  ('N#Cc1c(-c2ccccc2)cc(-c2ccccc2)n(CC(=O)NO)c1=O', 'inactive'),
  ('CC(C)(C)c1ccc(C(=O)Nc2sc3c(c2C#N)CCC(=O)C3)cc1', 'inactive'),
  ('COc1ccc2c(c1)C(=O)c1c-2n(CCCCl)c(=O)c2cc(OC)c(OC)cc12', 'inactive'),
  ('O=S1CCN(Cc2ccc(-c3ccc4ncnc(Nc5ccc(OCc6ccccc6)c(Cl)c5)c4c3)o2)CC1', 'active'),
  ('COC1=CC(c2ccc[nH]2)=N/C1=C\c1[nH]c(C)c(C(=O)CCCCC(=O)NCc2ccccc2)c1C', 'inactive');

Enquiry: Answer briefly: the call reported for COc1ccc(/C=C/c2nnc(/C=C/c3ccc(OC)c(OC)c3)o2)cc1OC in this assay.
Return: inactive

Enquiry: Answer briefly: the call reported for COc1ccc(Nc2nccc(Nc3ccc4[nH]ncc4c3)n2)cc1 in this assay.
Return: inactive

Enquiry: Answer briefly: the call reported for C=C1C(=O)O[C@H]2[C@H]1CC/C(COC(=O)CCCCCCC(=O)OC/C1=C/CC[C@@]3(C)O[C@H]3[C@H]3OC(=O)C(=C)[C@@H]3CC1)=C\CC[C@@]1(C)O[C@@H]21 in this assay.
Return: inactive

====

system: T-47D breast; assay: NCI tumour cell line growth inhibition, 48 h
We use 30 µM as the dividing line for TGI: on or above the line is True, below is False.

INSERT INTO measurements (compound, class_name) VALUES
  ('CN(C)CCn1nc2c3c(c(C(=O)NCCCN(C)CCCNC(=O)c4ccc5c6c(nn5CCN(C)C)-c5ccccc5Nc46)ccc31)Nc1ccccc1-2', 'False');

Enquiry: // inclusive: TGI at least 30 µM? input: COc1cccc(C2c3cc4c(cc3OC(NNc3ccccc3)C2C)OCO4)c1O (stereo not given)
Return: True

Enquiry: // inclusive: TGI at least 30 µM? input: C/C(=N\NC(=O)Nc1ccccc1Cl)c1ccc(O)cc1
Return: True

Enquiry: // inclusive: TGI at least 30 µM? input: O=S1CCN(Cc2ccc(-c3ccc4ncnc(Nc5ccc(OCc6cccc(F)c6)c(Cl)c5)c4c3)o2)CC1
Return: False

====

tested on: SNB-19 CNS; experiment: NCI tumour cell line growth inhibition, 48 h
reported metric: TGI (µM)
Dear colleague, please return just the value in µM, with no unit written.

The following molecules have reported results that may help.
INSERT INTO results (molecule, result) VALUES
  ('COc1cc(-c2nc3ccccc3s2)ccc1OCCCCCOc1cc2c(cc1OC)C(=O)N1CCC[C@H]1C=N2', 4.61),
  ('CC[C@@]1(O)C[C@H](OC2CC(N(C)C)C(OC3CC(O)C(OC4CC(O)C(O)C(C)O4)C(C)O3)C(C)O2)c2c(cc3c(c2O)C(=O)c2c(O)ccc(O)c2C3=O)[C@H]1C(=O)OC (some centres undefined)', 4.3),
  ('COc1cccc(C2c3cc4c(cc3OC(NNc3ccccc3)C2C)OCO4)c1O (centres undefined)', 32.4);

Please find the next molecule below.
Enquiry: Complete the entry with TGI for CN(C)CCNC(=O)c1ccc(Cl)c2ccc(-c3ccccc3)nc12
Return: 17.1

====

tested on: CAKI-1 renal; experiment: NCI tumour cell line growth inhibition, 48 h
reported metric: TGI

The following compounds have reported results that may help.
INSERT INTO assay_data (compound, system, result) VALUES
  ('C/C(=N\NC(=O)Nc1ccccc1Cl)c1ccc(O)cc1', 'CAKI-1 renal', '> 100 µM'),
  ('C=C1CC(Cn2ccc(=O)[nH]c2=O)(c2ccc(OC)cc2)OC1=O (stereo unspecified)', 'CAKI-1 renal', '19.6 µM'),
  ('Cc1ccc(-c2c(C#N)[n+](=O)c3cc(Cl)c(Cl)cc3n2[O-])cc1', 'CAKI-1 renal', '32.2 µM'),
  ('O=C(NCCc1[nH]nc2c1C(=O)C=C(Nc1ccccc1)C2=O)OCc1ccccc1', 'CAKI-1 renal', '> 100 µM');

Enquiry: Complete the entry with TGI for Nc1ncnc2c1ncn2C1OC(CSCc2ccc(Cl)cc2)C(O)C1O (stereo unspecified)
Return: 54 µM

Enquiry: Complete the entry with TGI for COc1ccc2nc(NNC(=O)c3cnccn3)c3cccn3c2c1
Return: 15.5 µM

====

tested on: UACC-62 melanoma; experiment: NCI tumour cell line growth inhibition, 48 h; in the data active means GI50 below about 0.43 µM; inactive means the rest
Hi there, use one of these labels in your reply, thanks! T = active, F = inactive

INSERT INTO results (compound, system, class_name) VALUES
  ('CCCCCCCCc1cc[n+](CC(=O)c2ccc(Br)cc2)cc1', 'UACC-62 melanoma', 'F'),
  ('COc1ccc(NCc2cc(OC)c(OC)c(OC)c2)cc1', 'UACC-62 melanoma', 'T'),
  ('COc1cc(C2=NNC(c3ccc(N(C)C)cc3)C2)cc(OC)c1OC (stereo not given)', 'UACC-62 melanoma', 'F'),
  ('O=S1CCN(Cc2ccc(-c3ccc4ncnc(Nc5ccc(OCc6cccc(F)c6)c(Cl)c5)c4c3)o2)CC1', 'UACC-62 melanoma', 'F');

Could you now look at the following compound, please?
Enquiry: Answer briefly: the call reported for c1ccc(-c2c(-c3ccccc3)[n+](Cc3ccc4ccccc4c3)c(-c3cccc4ccccc34)n2Cc2ccc3ccccc3c2)cc1 in this assay.
Return: T

====

test system: MDA-N; assay: NCI tumour cell line growth inhibition, 48 h
The reader will find reported TGI values listed item by item below.

INSERT INTO measurements (compound, result) VALUES
  ('O=C(O)CN1CCNCCNCC1', '> 100 µM'),
  ('CC(C)CC(C(N)=O)C(=O)NC(Cc1ccccc1)NC(=O)CNC(=O)C(C)NC(=O)C(N)Cc1ccc(O)cc1 (stereo unspecified)', '> 100 µM'),
  ('CC1CSC(=S)N1C(=O)N1C(=S)SCC1C (stereo unspecified)', '50.7 µM');

Enquiry: Complete the entry with TGI for O=C1NC(N/N=C/c2c[nH]c3ccccc23)=N/C1=C\c1cccs1
Return: > 100 µM

Enquiry: Complete the entry with TGI for CN(C)C=Nc1ccc2[nH]c3ccccc3c2c1
Return: 33 µM

====

tested on: SW-620 colon; test: NCI tumour cell line growth inhibition, 48 h
The reader will find reported TGI values listed item by item below.
Dear colleague, please return just the value in µM, with no unit written.

The following compounds have reported results that may help.
INSERT INTO measurements (compound, reported_metric, measurement_unit, result) VALUES
  ('C=C(C)C(=O)Oc1ccc(N=Nc2ccc(C)cc2)ccc1=O', 'TGI', 'µM', 13.4),
  ('CC(C)C1=C(O)C2=C(C(=O)C1=O)C1(C)CCCC(C)(C)C1CC2O (stereo unspecified)', 'TGI', 'µM', 63.2),
  ('O=C(c1c2c(cc3c1CC1(Cc4cc5c(cc4C1)CCCC5)C3)CCCC2)C(Br)Br', 'TGI', 'µM', 20.5);

Enquiry: Complete the entry with TGI for C[n+]1c(-c2ccccc2)cc2/c(=C\c3ccccc3)c3ccccc3n21
Return: 3.47

====

test system: OVCAR-5 ovarian; assay: NCI tumour cell line growth inhibition, 48 h
reported metric: TGI

The following compounds have reported results that may help.
INSERT INTO measurements (compound, system, result) VALUES
  ('Cc1ccccc1-n1c(=O)sc2c(=O)n(-c3ccccc3)c(=S)[nH]c21', 'OVCAR-5 ovarian', '> 100 µM'),
  ('O=[N+]([O-])c1cccnc1NCC1(CO)CCCC1', 'OVCAR-5 ovarian', '87.1 µM'),
  ('CCN(Cc1ccncc1)c1ccc(CO)c(Cl)c1', 'OVCAR-5 ovarian', '0.584 µM'),
  ('COc1cc2c(cc1OC)C1Cc3sccc3CN1CC2 (stereo unspecified)', 'OVCAR-5 ovarian', '> 100 µM'),
  ('N=c1oc2c(O)c(O)ccc2cc1C(N)=O', 'OVCAR-5 ovarian', '> 100 µM');

Please find the next compound below.
Enquiry: Complete the entry with TGI for COc1cc(-c2n[nH]nc2-c2ccc3c(c2)OCCO3)cc(OC)c1OC
Return: > 100 µM
